- assayed.system: "5-HT1 -like" receptor (Canis lupus familiaris)
- Construct: dog isolated saphenous vein strip; from tissue; host or cells: dog isolated saphenous vein strip
- Sequence (P79250 whole entry): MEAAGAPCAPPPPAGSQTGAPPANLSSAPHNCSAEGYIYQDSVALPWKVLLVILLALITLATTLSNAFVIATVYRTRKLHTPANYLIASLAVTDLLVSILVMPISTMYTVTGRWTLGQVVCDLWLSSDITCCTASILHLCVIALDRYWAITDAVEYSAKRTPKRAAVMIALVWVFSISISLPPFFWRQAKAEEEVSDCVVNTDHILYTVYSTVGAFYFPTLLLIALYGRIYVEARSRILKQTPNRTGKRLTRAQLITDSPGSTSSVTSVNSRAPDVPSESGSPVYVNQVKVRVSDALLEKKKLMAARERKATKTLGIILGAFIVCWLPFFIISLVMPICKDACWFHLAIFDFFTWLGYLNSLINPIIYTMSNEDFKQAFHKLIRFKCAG
- assay.procedure: contraction of dog isolated saphenous vein strip ("5-HT1 -like" receptor agonist activity)
- measurement.context: read-out: […] RELATIVE TO 5-HT RESPONSE; dog isolated saphenous vein strip; relative to 5-HT response; read-out: PERCENTAGE AGONISM RELATIVE TO 5-HT RESPONSE
Each entry below lists one item and its recorded Emax value.
Lab book: enter the figure in %, no units written.

Below are worked cases with known answers.
[[record]]
molecule = "CN1CCC[C@@H]1Cc1c[nH]c2ccc(-c3ccc(C(N)=O)s3)cc12 [Example 64]"
reported_result = 79

[[record]]
molecule = "CN1CCC[C@@H]1Cc1c[nH]c2ccc(-c3ccc(CO)o3)cc12 [Example 66]"
reported_result = 80

[[record]]
molecule = "OCc1ccc(-c2ccc3[nH]cc(C[C@H]4CCCN4)c3c2)cc1 [Example 37]"
reported_result = 72

[[record]]
molecule = "CN1CCC[C@@H]1Cc1c[nH]c2ccc(-c3cncc(C#N)c3)cc12 [Example 53]"
reported_result = 75

[[record]]
molecule = "CN1CCC[C@@H]1Cc1c[nH]c2ccc(-c3cccc(S(N)(=O)=O)c3)cc12 [Example 3]"
reported_result = 85

[[record]]
molecule = "CN(C)C(=O)CCN1CCC[C@@H]1Cc1c[nH]c2ccc(-c3cccc(C(=O)N(C)C)c3)cc12 [Example 46]"
reported_result = 78


// next entry
Given item c1ncc(-c2ccc3[nH]cc(C[C@H]4CCCN4CC4CC4)c3c2)cn1 [Example 60] , the value recorded as its Emax is 105

Data credit: patent US5502065A
